- system: Corticotropin-releasing factor receptor 2/Corticotropin-releasing factor-binding protein (Homo sapiens, UniProt P24387+Q13324)
- Sequence (Q13324 whole entry): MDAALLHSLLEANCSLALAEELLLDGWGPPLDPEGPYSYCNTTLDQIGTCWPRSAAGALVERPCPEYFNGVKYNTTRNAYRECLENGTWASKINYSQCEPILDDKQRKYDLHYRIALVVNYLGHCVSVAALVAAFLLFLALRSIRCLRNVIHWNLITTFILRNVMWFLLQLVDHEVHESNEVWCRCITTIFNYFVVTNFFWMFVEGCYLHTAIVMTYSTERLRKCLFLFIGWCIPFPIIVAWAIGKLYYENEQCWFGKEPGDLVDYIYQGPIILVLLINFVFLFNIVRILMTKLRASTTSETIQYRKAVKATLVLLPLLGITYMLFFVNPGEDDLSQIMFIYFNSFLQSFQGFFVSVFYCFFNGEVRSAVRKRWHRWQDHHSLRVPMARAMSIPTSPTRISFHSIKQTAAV
- Sequence (P24387 whole entry): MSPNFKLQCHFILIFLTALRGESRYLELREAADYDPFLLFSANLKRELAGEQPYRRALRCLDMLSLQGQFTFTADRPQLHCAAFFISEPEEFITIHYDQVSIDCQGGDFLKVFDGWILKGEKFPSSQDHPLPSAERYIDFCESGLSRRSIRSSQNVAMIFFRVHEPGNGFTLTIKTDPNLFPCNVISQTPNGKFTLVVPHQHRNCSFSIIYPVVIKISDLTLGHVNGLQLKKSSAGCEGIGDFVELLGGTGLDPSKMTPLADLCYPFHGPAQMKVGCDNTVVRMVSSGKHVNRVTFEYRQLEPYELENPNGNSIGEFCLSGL
- protocol summary: activators of CRF receptor 2 with binding protein – uHTS hits, confirmation (AID 602473)
- Type: functional
- experimental setup: read-out: EC50_Mean
Calls of active or inactive are those of the source. Cut-off read from the data, not from the text of the source: actives have a measured EC50 and inactives only a lower limit.
Entry note: the call must match one of Yes for active, No for inactive

Worked examples, 4 compounds total:
{"compound": "Cc1cc2c(cc1C)NC(c1c(C)n(C)n(-c3ccccc3)c1=O)C1=C(O)CC(C)(C)CC1=N2 (stereo not given)", "assigned category": "No"}
{"compound": "COc1cc(/C=C2\\SC(=S)N(NS(=O)(=O)c3ccc(C)cc3)C2=O)cc(OC)c1OC", "assigned category": "No"}
{"compound": "COC(=O)c1scc(C)c1NC(=O)c1ccccc1F", "assigned category": "No"}
{"compound": "CC1(C)CS/C(=N\\Cc2ccccc2)N1C(=O)c1cccc([N+](=O)[O-])c1", "assigned category": "Yes"}

Could you now consider this next compound?
Task: State the result this test recorded for COc1ccc(CCNc2nc(N3CCCCC3)nc(N3CCCCC3)n2)cc1OC .
Output: No

###

Exercise: for every item that follows, state its recorded EC50.
- system: Heat shock factor protein 1 (Mus musculus, UniProt P38532)
- Sequence (P38532 whole entry): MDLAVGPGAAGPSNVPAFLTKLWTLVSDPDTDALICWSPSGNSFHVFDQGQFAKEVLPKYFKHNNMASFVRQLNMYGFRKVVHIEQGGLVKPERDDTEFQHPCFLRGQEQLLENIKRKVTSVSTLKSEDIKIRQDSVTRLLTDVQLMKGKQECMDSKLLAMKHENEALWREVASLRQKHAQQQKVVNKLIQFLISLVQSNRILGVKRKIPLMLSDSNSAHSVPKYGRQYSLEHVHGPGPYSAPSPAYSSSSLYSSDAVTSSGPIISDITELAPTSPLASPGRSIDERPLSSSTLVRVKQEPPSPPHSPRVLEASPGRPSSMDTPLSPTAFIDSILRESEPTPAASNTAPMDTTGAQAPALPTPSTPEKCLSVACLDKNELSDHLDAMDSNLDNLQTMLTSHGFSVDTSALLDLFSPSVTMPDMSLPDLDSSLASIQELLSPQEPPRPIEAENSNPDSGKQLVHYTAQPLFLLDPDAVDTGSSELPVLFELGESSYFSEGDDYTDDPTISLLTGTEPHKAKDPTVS
- protocol summary: HSF1 potentiators in luciferase reporter cells, confirmation, cell-based, NIH3T3, luminescence, dose retest (AID 435004);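 note: stress induced by proteasome inhibitor MG132 added 30 min after compound; luciferase reporter driven by HSF1 response element in NIH3T3 cells; actives raise luminescence as potentiators of the MG132 stress response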
- Type: functional
Activity calls are given as the source filed them. Rule as the data show it: actives have a measured EC50 and inactives only a lower limit.

{"compound": "N#Cc1ccc(Cl)cc1NC(=O)CNCc1cccs1", "EC50": "> 260 µM (inactive)"}
{"compound": "COc1cccc(-c2c(C(=O)N/N=C(\\C)c3ccc(Cl)s3)nnn2-c2nonc2N)c1", "EC50": "51.8 µM (active)"}
{"compound": "Cc1ccc(C)c(NC(=O)CS(=O)(=O)c2cn(C)c3ccccc23)c1", "EC50": "> 260 µM (inactive)"}
{"compound": "CCOc1ccc(C)cc1S(=O)(=O)NC1CCCCC1", "EC50": "> 260 µM (inactive)"}
{"compound": "CC(=O)Cc1cc(O)c2ccccc2c1OC(=O)c1ccccc1", "EC50": "> 260 µM (inactive)"}

Kindly consider the entry below.
Task: Form field - read-out: EC50; system: Heat shock factor protein 1 (Mus musculus, UniProt P38532); submitted item: Cc1ccc(C2=Nc3ccccc3NC(C)(c3ccc(C)o3)C2)o1 (stereo unspecified)
Output: > 260 µM (inactive)
